Organism: Homo sapiens
Assay procedure: To identify inhibition of the IFN signalling (Jak-Stat) pathway via expression of an eGFP reporter gene under the control of an IFN-stimulated response element (ISRE) containing MxA promoter.
Format: functional
Parameters: scale not given: direction of the effect not stated beside the values
Condition set: 30 µM
Observation type: Percent Effect (%)

[[record]]
compound = "c1ccc(CO[C@@H]2CO[C@@]3(CCN(Cc4ccccn4)C3)C2)nc1"
unit_of_measure = "%"
result = -42

[[record]]
compound = "CCS(=O)(=O)N[C@@H]1CN(Cc2cc(C)on2)C[C@@H]2CCCO[C@@H]21"
unit_of_measure = "%"
result = -3.3

[[record]]
compound = "Cn1ccnc1CN1CCC2(CC(=O)N(c3cncnc3)C2)C1 (stereo not given)"
unit_of_measure = "%"
result = 2.89

[[record]]
compound = "O=C(C1CCC1)N1CCC2(CC1)OCCO2"
unit_of_measure = "%"
result = 5.13

[[record]]
compound = "CCc1nnc(C(C)N2CCCN(C(=O)Oc3ccccc3)CC2)o1 (stereo not given)"
unit_of_measure = "%"
result = 3.97

[[record]]
compound = "O=C(Nc1cccnc1)[C@@H]1C[C@H]2OCC[C@H]2N(Cc2ccsc2)C1"
unit_of_measure = "%"
result = 0.767

[[record]]
compound = "COc1ccccc1C1SCC(=O)Nc2n[nH]cc21 (stereo not given)"
unit_of_measure = "%"
result = -13.4

[[record]]
compound = "CCCN1CCN(Cc2nccn2CC)C(C)C1 (stereo not given)"
unit_of_measure = "%"
result = 32.2

[[record]]
compound = "O=C(Nc1cccnc1)[C@H]1COC[C@H]2CN(C3CCCC3)C[C@H]21"
unit_of_measure = "%"
result = -5.51

[[record]]
compound = "CCn1ccnc1CN1CCCN(C(=O)Cc2ccc(C)nc2)CC1"
unit_of_measure = "%"
result = -0.845

[[record]]
compound = "c1ccc(CN2CCC3(CC2)CCN(Cc2cccs2)C3)nc1"
unit_of_measure = "%"
result = -11.1

[[record]]
compound = "NCC1(c2cccc(Br)c2)CCOCC1"
unit_of_measure = "%"
result = 2.44

[[record]]
compound = "CCc1nc(CNC(C)Cn2cccn2)cs1 (stereo not given)"
unit_of_measure = "%"
result = 14.4

[[record]]
compound = "O=C1CSC(c2ccsc2)c2sccc2N1 (stereo not given)"
unit_of_measure = "%"
result = 6.1

[[record]]
compound = "COc1ccc(C2SCC(=O)Nc3ccsc32)cc1 (stereo not given)"
unit_of_measure = "%"
result = 30.7

[[record]]
compound = "O=C1CC2(CCCNC2)C(=O)N1Cc1ccccc1 (stereo not given)"
unit_of_measure = "%"
result = 15

[[record]]
compound = "CCOCC(O)CN1CCN(C(=O)Cc2ccccc2Cl)CC1 (stereo not given)"
unit_of_measure = "%"
result = 14

[[record]]
compound = "c1cc(CO[C@@H]2CC[C@H]3[C@H]2OCCN3Cc2ccoc2)ccn1"
unit_of_measure = "%"
result = 33.2

[[record]]
compound = "COCCN1CCC2(COCc3cnc(N4CCOCC4)nc32)C1 (stereo not given)"
unit_of_measure = "%"
result = 21.1

[[record]]
compound = "O=C(COc1cccc(F)c1)N1C[C@@H](O)[C@H](N2CCCC2)C1"
unit_of_measure = "%"
result = -0.848

[[record]]
compound = "CN1CCCC(Cc2cncc(Br)c2)CC1 (stereo not given)"
unit_of_measure = "%"
result = -10.1

[[record]]
compound = "c1ccc(CO[C@H]2CO[C@@]3(CCN(Cc4ccoc4)C3)C2)nc1"
unit_of_measure = "%"
result = -27.8

[[record]]
compound = "CN(C)c1ncc2c(n1)C1(CCN(Cc3ccccc3)C1)COC2 (stereo not given)"
unit_of_measure = "%"
result = -0.512

[[record]]
compound = "c1ccc(OC[C@]23COC[C@H]2CN(Cc2ccoc2)C3)nc1"
unit_of_measure = "%"
result = -8.07

[[record]]
compound = "Cc1noc([C@@H]2C[C@H]3CN(Cc4cc(C)on4)C[C@H]3O2)n1"
unit_of_measure = "%"
result = 10.4


* * *

System name: Aspartate--tRNA(Asp/Asn) ligase (Mycobacterium tuberculosis (strain ATCC 25618 / H37Rv)); also: in the data most compounds retested in dose-response had high values
Sequence (whole entry): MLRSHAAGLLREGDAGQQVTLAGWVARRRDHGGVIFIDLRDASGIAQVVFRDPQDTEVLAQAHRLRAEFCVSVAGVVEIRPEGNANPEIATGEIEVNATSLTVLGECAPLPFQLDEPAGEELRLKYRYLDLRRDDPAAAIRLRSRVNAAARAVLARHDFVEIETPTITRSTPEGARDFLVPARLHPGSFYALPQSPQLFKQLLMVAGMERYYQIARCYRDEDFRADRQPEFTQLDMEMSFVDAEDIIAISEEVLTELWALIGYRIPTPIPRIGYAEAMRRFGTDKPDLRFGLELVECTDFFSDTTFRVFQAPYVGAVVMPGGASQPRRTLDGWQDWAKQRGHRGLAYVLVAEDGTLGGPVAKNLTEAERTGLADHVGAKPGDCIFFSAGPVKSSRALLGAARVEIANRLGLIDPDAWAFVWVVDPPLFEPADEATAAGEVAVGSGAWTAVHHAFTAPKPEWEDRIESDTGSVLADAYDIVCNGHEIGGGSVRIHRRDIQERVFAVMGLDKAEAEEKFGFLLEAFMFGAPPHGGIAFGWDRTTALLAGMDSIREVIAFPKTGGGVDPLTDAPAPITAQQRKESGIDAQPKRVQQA
Assay procedure: Assay for Asp RNA synthetase-1 from Mycobacterium tuberculosis
Type: functional
Parameters: scale not given: direction of the effect not stated beside the values
Condition set: 30 µM
Measured Percent Effect accompanies every entry in the list below.
Observation type: Percent Effect (%)

[[record]]
molecule = "CC(C(=O)NCc1cccc(N2CC=CC2)c1)n1cccn1 (centres undefined)"
unit_of_measure = "%"
result = -1.41

[[record]]
molecule = "CCSCC(C)NCc1nncn1C1CCCCC1 (centres undefined)"
unit_of_measure = "%"
result = 1.39

[[record]]
molecule = "Cc1ccc(S(=O)(=O)N2C[C@H]3C[C@H](NC(=O)c4ccnn4C)[C@H]3C2)cc1"
unit_of_measure = "%"
result = 0.283

[[record]]
molecule = "CC(NC1CCN(CCS(C)(=O)=O)CC1)c1ccc(Cl)cc1 (centres undefined)"
unit_of_measure = "%"
result = 7.04

[[record]]
molecule = "Cc1cccc(CN2CCc3c(nc(N4CCC(C)CC4)[nH]c3=O)C2)n1"
unit_of_measure = "%"
result = -2.78

[[record]]
molecule = "CCOCC(O)CN1CCN(C(=O)Cc2ccc3c(c2)CCO3)CC1 (centres undefined)"
unit_of_measure = "%"
result = 0.3

[[record]]
molecule = "O=C1CC(N(C(=O)c2ccc3c(c2)CCC3)C2CC2)C(=O)N1 (centres undefined)"
unit_of_measure = "%"
result = 0.714

[[record]]
molecule = "CC(C)c1cc(N2CCC(N)CC2)n2nccc2n1"
unit_of_measure = "%"
result = -0.232

[[record]]
molecule = "Cc1csc([C@@H]2C[C@@H]3CCN(Cc4cnn(C)c4)C[C@H]3O2)n1"
unit_of_measure = "%"
result = -2.71

[[record]]
molecule = "CCCn1c(C)c(CC(=O)NC)c2c1CC(C)(C)CC2=O"
unit_of_measure = "%"
result = -1.07

[[record]]
molecule = "Cc1ccc2ncnc(N3CCOCC3c3c(C)nn(C)c3C)c2c1 (centres undefined)"
unit_of_measure = "%"
result = -0.356

[[record]]
molecule = "Cc1cc(N2CCC3(CCC(=O)N(CC4CC4)C3)CC2)nc(N)n1"
unit_of_measure = "%"
result = -0.719

[[record]]
molecule = "Cc1noc(C)c1CN1CC[C@H]2C[C@@H](c3nccs3)O[C@@H]2C1"
unit_of_measure = "%"
result = 3.41

[[record]]
molecule = "Cc1ccsc1CN(CCN(C)C)Cc1ccccn1"
unit_of_measure = "%"
result = -0.167

[[record]]
molecule = "O=C(C1COCCO1)N1CCN(Cc2ccc3c(c2)CCO3)CC1 (centres undefined)"
unit_of_measure = "%"
result = 1.71

[[record]]
molecule = "COCCC(=O)N1CCCC2(CCC(=O)N2CCOC)CC1 (centres undefined)"
unit_of_measure = "%"
result = 0.751

[[record]]
molecule = "CN(C)CC1CSCCCN1C(=O)c1ccc(=O)[nH]c1 (centres undefined)"
unit_of_measure = "%"
result = 0.539

[[record]]
molecule = "O=C(c1cccs1)N1CC[C@H](O)[C@@H]1Cc1ccccc1"
unit_of_measure = "%"
result = 0.296

[[record]]
molecule = "COc1ccc(C(=O)N2CCCCC2Cn2cccn2)c(F)c1 (centres undefined)"
unit_of_measure = "%"
result = 3.52

[[record]]
molecule = "COc1ccc(C2CC(=O)Oc3cc(C)[nH]c(=O)c32)cc1 (centres undefined)"
unit_of_measure = "%"
result = 0.232

[[record]]
molecule = "CC(C)Oc1ccc(CNC(=O)CC(F)(F)F)cc1F"
unit_of_measure = "%"
result = -4.64

[[record]]
molecule = "Cn1ccnc1C(NCc1csc(Br)c1)c1ccccc1 (centres undefined)"
unit_of_measure = "%"
result = -0.175

[[record]]
molecule = "Cc1ccc(N2CCC3(CC2)CC(OCC(=O)N(C)C)CO3)nn1 (centres undefined)"
unit_of_measure = "%"
result = -2.52

[[record]]
molecule = "CN(Cc1ccccc1O)C(=O)NC1CCCN(c2ncccn2)C1 (centres undefined)"
unit_of_measure = "%"
result = -4.06

